# method_notes: Particle size distribution of the powder produced by high pressure cavitation (HPC) and spray drying
# Assay type: physicochemical
# details: dry powder after HPC followed by spray drying
Field: Dv90. Provide a value for each of the compounds that follow.
Give the quantity in μm, number only.

Query: # return recorded Dv90 for entry C[C@@H]1C[C@H]2[C@@H]3CCC4=CC(=O)C=C[C@]4(C)[C@@]3(Cl)[C@@H](O)C[C@]2(C)[C@@]1(OC(=O)c1ccco1)C(=O)CCl [Mometasone furoate monohydrate]
Reply: 7.47

Query: # return recorded Dv90 for entry C[C@@H]1C[C@H]2[C@@H]3C[C@H](F)C4=CC(=O)C=C[C@]4(C)[C@@]3(F)[C@@H](O)C[C@]2(C)[C@@]1(OC(=O)c1ccco1)C(=O)SCF [Fluticasone furoate]
Reply: 3.78

Query: # return recorded Dv90 for entry CCC(=O)O[C@]1(C(=O)SCF)[C@H](C)C[C@H]2[C@@H]3C[C@H](F)C4=CC(=O)C=C[C@]4(C)[C@@]3(F)[C@@H](O)C[C@@]21C [Fluticasone propionate]
Reply: 4.68

Query: # return recorded Dv90 for entry OCc1cc(C(O)CNCCCCCCOCCCCc2ccccc2)ccc1O (centres unmarked) [Salmeterol xinafoate]
Reply: 3.09

Query: # return recorded Dv90 for entry C[N+]1(C)[C@@H]2C[C@@H](OC(=O)C(O)(c3cccs3)c3cccs3)C[C@H]1[C@@H]1O[C@@H]12 [Tiotropium bromide]
Reply: 5.58
